System: Aspergillus niger
PROCEDURE DETAILS: Antifungal activity against Aspergillus niger assessed as zone of inhibition at 75 ug/well after 48 hrs by agar well diffusion method
Assay type: functional
The source made the active and inactive calls. The rule behind the calls is not given here.
METRIC: diameter of the inhibition zone (DIZ)

INSERT INTO results (compound, result) VALUES
  ('O=C(NS(=O)(=O)C1C(c2ccccc2)=NOC1c1ccccc1)c1cccs1 (stereo not given)', 'inactive'),
  ('Cc1ccc(C2ON=C(c3ccccc3)C2S(=O)(=O)NC(=O)c2cccs2)cc1 (stereo not given)', 'inactive'),
  ('Cc1ccc(C2C(S(=O)(=O)NC(=O)c3ccc(Cl)s3)C(c3ccccc3)=NN2c2ccccc2)cc1 (stereo not given)', 'inactive'),
  ('O=C(NS(=O)(=O)C1C(c2ccccc2)=NN(c2ccccc2)C1c1ccccc1)c1cccs1 (stereo not given)', 'inactive'),
  ('Cc1ccc(C2ON=C(c3ccccc3)C2S(=O)(=O)NC(=O)c2ccc(Cl)s2)cc1 (stereo not given)', 'inactive');

###

MBC reference
Test system: Klebsiella pneumoniae
PROCEDURE DETAILS: Bactericidal activity against Klebsiella pneumoniae incubated for 24 hrs followed by replating on sterile nutrient broth and incubated for 24 hrs by broth dilution test
Format: functional
METRIC: MBC (mg/L)

INSERT INTO assay_data (cpd_smiles, metric, recorded_number) VALUES
  ('O=C(NS(=O)(=O)/C=C/c1ccc([N+](=O)[O-])cc1)c1ccc(Cl)s1', 'MBC', 100),
  ('O=C(NS(=O)(=O)c1c(-c2ccccc2)nn(-c2ccccc2)c1-c1ccc([N+](=O)[O-])cc1)c1cccs1', 'MBC', 100),
  ('O=C(NS(=O)(=O)c1c(-c2ccccc2)noc1-c1ccc([N+](=O)[O-])cc1)c1cccs1', 'MBC', 100),
  ('O=C(NS(=O)(=O)/C=C/c1ccc([N+](=O)[O-])cc1)c1cccs1', 'MBC', 200),
  ('O=C(NS(=O)(=O)c1c(-c2ccccc2)nn(-c2ccccc2)c1-c1ccc([N+](=O)[O-])cc1)c1ccc(Cl)s1', 'MBC', 100),
  ('O=C(NS(=O)(=O)c1c(-c2ccccc2)noc1-c1ccc([N+](=O)[O-])cc1)c1ccc(Cl)s1', 'MBC', 100);

###

System: Staphylococcus aureus
PROCEDURE DETAILS: Antimicrobial activity against Staphylococcus aureus assessed as zone of inhibition at 50 ug/well after 24 hrs by agar well diffusion method
Assay type: functional
Calls of active or inactive are those of the source. The calls are words filed in the database; no cut-off is given here.
METRIC: diameter of the inhibition zone (DIZ)

INSERT INTO assay_data (compound, result) VALUES
  ('O=C(NS(=O)(=O)C1C(c2ccccc2)=NN(c2ccccc2)C1c1ccccc1)c1cccs1 (stereo unspecified)', 'inactive'),
  ('O=C(NS(=O)(=O)C1C(c2ccccc2)=NN(c2ccccc2)C1c1ccc([N+](=O)[O-])cc1)c1cccs1 (stereo unspecified)', 'inactive'),
  ('O=C(NS(=O)(=O)C1C(c2ccccc2)=NN(c2ccccc2)C1c1ccccc1)c1ccc(Cl)s1 (stereo unspecified)', 'inactive'),
  ('Cc1ccc(C2ON=C(c3ccccc3)C2S(=O)(=O)NC(=O)c2cccs2)cc1 (stereo unspecified)', 'inactive'),
  ('Cc1ccc(C2C(S(=O)(=O)NC(=O)c3ccc(Cl)s3)C(c3ccccc3)=NN2c2ccccc2)cc1 (stereo unspecified)', 'inactive'),
  ('Cc1ccc(C2C(S(=O)(=O)NC(=O)c3cccs3)C(c3ccccc3)=NN2c2ccccc2)cc1 (stereo unspecified)', 'inactive'),
  ('O=C(NS(=O)(=O)C1C(c2ccccc2)=NOC1c1ccccc1)c1ccc(Cl)s1 (stereo unspecified)', 'inactive'),
  ('Cc1ccc(C2ON=C(c3ccccc3)C2S(=O)(=O)NC(=O)c2ccc(Cl)s2)cc1 (stereo unspecified)', 'inactive'),
  ('Cc1ccc(/C=C/S(=O)(=O)NC(=O)c2cccs2)cc1', 'inactive'),
  ('O=C(NS(=O)(=O)C1C(c2ccccc2)=NN(c2ccccc2)C1c1ccc([N+](=O)[O-])cc1)c1ccc(Cl)s1 (stereo unspecified)', 'inactive'),
  ('O=C(NS(=O)(=O)C1C(c2ccccc2)=NOC1c1ccccc1)c1cccs1 (stereo unspecified)', 'inactive');
